Each recorded value in this set is attributed to PubChem BioAssay.

Method Summary: MM1S cell viability effects, profiling panel, calcein-AM fluorescence, 48 h, basal (AID 1165);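 further: viability of MM1S multiple myeloma cells under basal unstimulated conditions; test concentration not given here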
Details: higher = more signal
Assay Metric: z-score

Recorded results for 2 compounds are shown here.
# Compound, z-score
rows = [
    ("COc1ccc(CCN2C(=O)[C@@]3(Cc4ccccc42)c2ccccc2C(=O)N(Cc2ccccc2Cl)[C@H]3c2ccc(CO)cc2)cc1", 0.23),
    ("COC(=O)[C@@]1(Cc2ccccc2N=[N+]=[N-])COC(c2ccc(OCCCO)cc2)=N1", -3.53),
]

Recorded result, COCCOC(=O)N1C(=O)[C@@]2(c3cc(C#CCC(C(=O)OC)C(=O)OC)ccc31)[C@H](c1ccc(O)cc1)N1[C@H](c3ccccc3)[C@H](c3ccccc3)OC(=O)[C@H]1[C@@H]2C(N)=O , z-score: -2.89

Noted for CCCCCCCCCCC(O)C1C=CC2C(=O)N(Cc3ccccc3)C(=O)C2N1n1cnnc1 (stereo not drawn) : its z-score reads -0.514

z-score in this record for CC(c1ccccc1)C(O)C1C=CC2C(=O)NC(=O)C2N1Nc1ccccn1 (stereo not drawn) : -0.275

Entry COc1cc(CO)ccc1OC(C)=O — recorded z-score = 1.12

Per the record, C=C(C(=O)CC[C@H](OC(C)=O)c1ccc(OCCO)cc1)C(C)C has z-score of -0.984

Memo: O=C1O[C@H](c2ccccc2)[C@H](c2ccccc2)N2[C@H]1[C@@H](C(=O)N1CCN(c3ncccn3)CC1)[C@]1(C(=O)Nc3ccccc31)[C@H]2c1ccc(OCCO)cc1 , reported z-score: 0.0498

---

System: Lefty1
Method Summary: Lefty1 binders on small-molecule microarrays, primary screen, biochemical, small-molecule microarray, 635/667 nm fluorescence (AID 1139)
Details: small-molecule microarray binding, fluorescence 635/667; higher = more signal
Assay Metric: composite z-score
Returns: the value as a bare number; no unit string appended.

Observe how each entry below is paired with its result.
# Compound, composite z-score
measured = [
    ("C=C[C@H](COC(C)=O)N(Cc1ccc(OC(C)=O)c(OC)c1)S(=O)(=O)c1ccc(Br)cc1", 1.02),
    ("C=C[C@@H](COC(C)=O)N(Cc1ccccc1[N+](=O)[O-])S(=O)(=O)c1ccc(Br)cc1", 0.929),
]

Lab note: next compound to report on.
Sample C=CCC(OC(C)=O)[C@@H]1[C@@H](N(Cc2cc3ccccc3o2)C(=O)c2ccc(C)cc2)c2cc(OCCCO)ccc2N1C(=O)c1ccc2ccccc2c1 (stereo partly drawn) ; composite z-score observed: 0.217

---

Method Summary: S. cerevisiae RM11-1a growth modifiers, primary screen, strain RM11-1a, OD600, basal, 24 h (AID 1177);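 further: cultures grown under basal conditions with no added stressor; test concentration not given here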
Details: OD600, 24 h, higher = more signal, called active from +8 up or from −8 down
Assay Metric: z-score
Please state the value as a number alone, without comment.

These solved cases illustrate the format of a correct answer.
# Compound, Readout Number
records = [
    ("CCOC(=O)C1=CC[C@@H](c2ccccc2Cl)N(S(=O)(=O)c2ccc(C)cc2)C1", -0.24),
    ("CC(C)=CCCC(C)=CC(O)C1C=CC2C(=O)N(c3ccccc3)C(=O)C2N1Nc1ccccc1 (stereo not given)", 0.42),
    ("COc1cc(C(O)C2C=CC3C(=O)N(c4ccccc4)C(=O)C3N2Nc2ccc(C#N)cc2)cc(OC)c1OC (stereo not given)", -0.343),
    ("O=C/C=C/c1ccc2c(c1)OCO2", -1.87),
    ("COc1ccc(C#Cc2ccc3c(c2)[C@]2(C(=O)N3)[C@H](c3ccc(O)cc3)N3[C@H](c4ccccc4)[C@H](c4ccccc4)OC(=O)[C@H]3[C@@H]2C(=O)NC[C@H](O)c2ccccc2)cc1", 2.71),
    ("COC(=O)[C@@]1(Cc2ccccc2)[C@H]2c3cc(C(=O)N(C)C)n(Cc4cc(C)n(C)n4)c3C[C@H]2CN1C(=O)c1ccccc1", -0.211),
    ("CC(=CC1CCCCC1)[C@@H](NC(=O)c1ccc(C(F)(F)F)cc1)c1ccc(-c2ccccc2)cc1", 0.088),
    ("COC(=O)[C@@]1(Cc2ccccc2)[C@H]2c3cc(C(=O)N4CCCC4)n(Cc4ccc(C)o4)c3C[C@H]2CN1C(=O)c1ccccc1", -0.219),
]

compound COc1ccc(CCNC(=O)[C@@]2(Sc3ccc(C)cc3)CC(=O)N(Cc3ccccc3Cl)[C@@H]2c2ccc(CO)cc2I)cc1 , z-score observed: -1.37

Documented z-score of CCOC(=O)C1=CC[C@@H](c2ccccc2)N(S(=O)(=O)c2ccc(C)cc2)[C@H]1C(=O)OCC : 0.482
